- target entity: D(2) dopamine receptor (Homo sapiens, UniProt P14416)
- Sequence (P14416 whole entry): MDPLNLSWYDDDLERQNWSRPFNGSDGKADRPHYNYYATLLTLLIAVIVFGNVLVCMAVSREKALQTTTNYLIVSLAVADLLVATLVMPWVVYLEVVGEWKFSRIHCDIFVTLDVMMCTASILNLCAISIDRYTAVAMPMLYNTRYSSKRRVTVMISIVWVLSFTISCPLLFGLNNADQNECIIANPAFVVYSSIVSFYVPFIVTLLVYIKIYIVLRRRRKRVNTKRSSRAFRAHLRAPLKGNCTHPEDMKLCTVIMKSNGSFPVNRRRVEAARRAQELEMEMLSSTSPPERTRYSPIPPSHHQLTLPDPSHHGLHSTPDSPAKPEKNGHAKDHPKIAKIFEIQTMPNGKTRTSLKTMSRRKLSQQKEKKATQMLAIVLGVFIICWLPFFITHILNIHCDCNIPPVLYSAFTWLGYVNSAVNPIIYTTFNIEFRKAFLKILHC
- method summary: Displacement of [3H]spiperone from human D2short receptor stably expressed in CHO cell membranes by competitive binding assay
Please provide measured pKi for the entries that follow.
Give bare numbers, as −log10 of the molar value.

Examples with their reported pKi follow.
>  <structure>
O=C(CCC(=O)N1CCC(O)(c2ccc(Cl)cc2)CC1)c1ccc(F)cc1

>  <pKi>
6.33

$$$$
>  <structure>
O=C(CCCCCCCCCCCCC(=O)OC1(c2ccc(Cl)cc2)CCN(CCCC(=O)c2ccc(F)cc2)CC1)OC1(c2ccc(Cl)cc2)CCN(CCCC(=O)c2ccc(F)cc2)CC1

>  <pKi>
7.21

$$$$
>  <structure>
O=C(CCCCCC(=O)OC1(c2ccc(Cl)cc2)CCN(CCCC(=O)c2ccc(F)cc2)CC1)OC1(c2ccc(Cl)cc2)CCN(CCCC(=O)c2ccc(F)cc2)CC1

>  <pKi>
8.59

$$$$

Problem: Read off the recorded pKi for O=C(CCCCCCCCCCC(=O)OC1(c2ccc(Cl)cc2)CCN(CCCC(=O)c2ccc(F)cc2)CC1)OC1(c2ccc(Cl)cc2)CCN(CCCC(=O)c2ccc(F)cc2)CC1
Solution: 7.34

###

Please provide measured pKi for the entries that follow.
- target entity: D(2) dopamine receptor (Homo sapiens)
- method summary: Displacement of [3H]spiperone from human D2long receptor stably expressed in CHO cell membranes by competitive binding assay
Answers are plain numbers, as −log10 of the molar value.

State recorded pKi for all listed molecules.
1. CCCCCCCCCC(=O)OC1(c2ccc(Cl)cc2)CCN(CCCC(=O)c2ccc(F)cc2)CC1 [HALOPERIDOL DECANOATE]
2. CN(C)CCC(=O)OC1(c2ccc(Cl)cc2)CCN(CCCC(=O)c2ccc(F)cc2)CC1
3. O=C(CCc1cn(CCCCCCCCCCn2cc(CCC(=O)OC3(c4ccc(Cl)cc4)CCN(CCCC(=O)c4ccc(F)cc4)CC3)nn2)nn1)OC1(c2ccc(Cl)cc2)CCN(CCCC(=O)c2ccc(F)cc2)CC1

Solution:
8.74
8.72
8.31

###

- target entity: UniProt P14416
- method summary: Displacement of [3H]spiperone from human D2long receptor stably expressed in CHO cell membranes by competitive binding assay
quantity name: Ki (nM)
Answers are plain numbers, in nM.

Examples with their reported Ki follow.
>  <structure>
Cc1ccc(C(=O)OC2(c3ccc(Cl)cc3)CCN(CCCC(=O)c3ccc(F)cc3)CC2)cc1

>  <result units>
nM

>  <recorded result>
56

$$$$
>  <structure>
CN(CCC(=O)OC1(c2ccc(Cl)cc2)CCN(CCCC(=O)c2ccc(F)cc2)CC1)CCN(C)CCC(=O)OC1(c2ccc(Cl)cc2)CCN(CCCC(=O)c2ccc(F)cc2)CC1

>  <result units>
nM

>  <recorded result>
3.2

$$$$

State recorded Ki for all listed compounds.
1. O=C(CCCCCCCCCCC(=O)OC1(c2ccc(Cl)cc2)CCN(CCCC(=O)c2ccc(F)cc2)CC1)OC1(c2ccc(Cl)cc2)CCN(CCCC(=O)c2ccc(F)cc2)CC1
2. O=C(CCC(=O)N1CCC(O)(c2ccc(Cl)cc2)CC1)c1ccc(F)cc1

Solution:
[66, 860]

###

- target entity: D(2) dopamine receptor (Homo sapiens, UniProt P14416)
- method summary: Displacement of [3H]spiperone from human D2long receptor stably expressed in CHO cell membranes by competitive binding assay
Please provide measured Ki for the entries that follow.
Answers are plain numbers, in nM.

Examples with their reported Ki follow.
>  <structure>
O=C(CCCCCCCCCCCCCCCCC(=O)OC1(c2ccc(Cl)cc2)CCN(CCCC(=O)c2ccc(F)cc2)CC1)OC1(c2ccc(Cl)cc2)CCN(CCCC(=O)c2ccc(F)cc2)CC1

>  <Ki / nM>
160

$$$$
>  <structure>
O=C(CCCCCCCCC(=O)OC1(c2ccc(Cl)cc2)CCN(CCCC(=O)c2ccc(F)cc2)CC1)OC1(c2ccc(Cl)cc2)CCN(CCCC(=O)c2ccc(F)cc2)CC1

>  <Ki / nM>
15

$$$$
>  <structure>
O=C(CCCC(=O)OC1(c2ccc(Cl)cc2)CCN(CCCC(=O)c2ccc(F)cc2)CC1)OC1(c2ccc(Cl)cc2)CCN(CCCC(=O)c2ccc(F)cc2)CC1

>  <Ki / nM>
12

$$$$
>  <structure>
O=C(CCCCCCCCCCCCCCCCCCC(=O)OC1(c2ccc(Cl)cc2)CCN(CCCC(=O)c2ccc(F)cc2)CC1)OC1(c2ccc(Cl)cc2)CCN(CCCC(=O)c2ccc(F)cc2)CC1

>  <Ki / nM>
25

$$$$
>  <structure>
O=C(CCCCCCCCCCCCCCC(=O)OC1(c2ccc(Cl)cc2)CCN(CCCC(=O)c2ccc(F)cc2)CC1)OC1(c2ccc(Cl)cc2)CCN(CCCC(=O)c2ccc(F)cc2)CC1

>  <Ki / nM>
140

$$$$

Problem: Read off the recorded Ki for O=C(CCCCCCCCCCCCC(=O)OC1(c2ccc(Cl)cc2)CCN(CCCC(=O)c2ccc(F)cc2)CC1)OC1(c2ccc(Cl)cc2)CCN(CCCC(=O)c2ccc(F)cc2)CC1
Solution: 120

###

- target entity: D(2) dopamine receptor (Homo sapiens, UniProt P14416)
- method summary: Displacement of [3H]spiperone from human D2long receptor stably expressed in CHO cell membranes by competitive binding assay
quantity name: pKi
Numbers only, as −log10 of the molar value.

State recorded pKi for all listed molecules.
1. CCC(=O)OC1(c2ccc(Cl)cc2)CCN(CCCC(=O)c2ccc(F)cc2)CC1
2. O=C(CCCCC(=O)OC1(c2ccc(Cl)cc2)CCN(CCCC(=O)c2ccc(F)cc2)CC1)OC1(c2ccc(Cl)cc2)CCN(CCCC(=O)c2ccc(F)cc2)CC1
3. O=C(CCCCCCC(=O)OC1(c2ccc(Cl)cc2)CCN(CCCC(=O)c2ccc(F)cc2)CC1)OC1(c2ccc(Cl)cc2)CCN(CCCC(=O)c2ccc(F)cc2)CC1
4. O=C(CCCCCC(=O)OC1(c2ccc(Cl)cc2)CCN(CCCC(=O)c2ccc(F)cc2)CC1)OC1(c2ccc(Cl)cc2)CCN(CCCC(=O)c2ccc(F)cc2)CC1
5. O=C(CCc1cn(CCOCCOCCOCCn2cc(CCC(=O)OC3(c4ccc(Cl)cc4)CCN(CCCC(=O)c4ccc(F)cc4)CC3)nn2)nn1)OC1(c2ccc(Cl)cc2)CCN(CCCC(=O)c2ccc(F)cc2)CC1

Solution:
1. 8.41
2. 8.52
3. 8.60
4. 8.48
5. 9.00

###

Please provide measured pKi for the entries that follow.
- target entity: D(2) dopamine receptor (Homo sapiens, UniProt P14416)
- method summary: Displacement of [3H]spiperone from human D2long receptor stably expressed in CHO cell membranes by competitive binding assay
Answers are plain numbers, as −log10 of the molar value.

Examples with their reported pKi follow.
>  <structure>
O=C(CCCCCCCCCCCCCCCCCCCCC(=O)OC1(c2ccc(Cl)cc2)CCN(CCCC(=O)c2ccc(F)cc2)CC1)OC1(c2ccc(Cl)cc2)CCN(CCCC(=O)c2ccc(F)cc2)CC1

>  <recorded result>
6.51

$$$$
>  <structure>
O=C(CCc1cn(CCCCCCCCn2cc(CCC(=O)OC3(c4ccc(Cl)cc4)CCN(CCCC(=O)c4ccc(F)cc4)CC3)nn2)nn1)OC1(c2ccc(Cl)cc2)CCN(CCCC(=O)c2ccc(F)cc2)CC1

>  <recorded result>
8.89

$$$$
>  <structure>
CC(=O)OC1(c2ccc(Cl)cc2)CCN(CCCC(=O)c2ccc(F)cc2)CC1

>  <recorded result>
8.35

$$$$

# input for lookup
Problem: Read off the recorded pKi for O=C(CCCCCCCC(=O)OC1(c2ccc(Cl)cc2)CCN(CCCC(=O)c2ccc(F)cc2)CC1)OC1(c2ccc(Cl)cc2)CCN(CCCC(=O)c2ccc(F)cc2)CC1
Solution: 8.25
